Target: T1, human DLL3 (immobilized human DLL3 or h293-hDLL3 cells) (human, UniProt Q9NYJ7 27-492, limits assumed)
T1 construct: the sentence says 'immobilized human DLL3 or h293-hDLL3 cells'
T1 sequence: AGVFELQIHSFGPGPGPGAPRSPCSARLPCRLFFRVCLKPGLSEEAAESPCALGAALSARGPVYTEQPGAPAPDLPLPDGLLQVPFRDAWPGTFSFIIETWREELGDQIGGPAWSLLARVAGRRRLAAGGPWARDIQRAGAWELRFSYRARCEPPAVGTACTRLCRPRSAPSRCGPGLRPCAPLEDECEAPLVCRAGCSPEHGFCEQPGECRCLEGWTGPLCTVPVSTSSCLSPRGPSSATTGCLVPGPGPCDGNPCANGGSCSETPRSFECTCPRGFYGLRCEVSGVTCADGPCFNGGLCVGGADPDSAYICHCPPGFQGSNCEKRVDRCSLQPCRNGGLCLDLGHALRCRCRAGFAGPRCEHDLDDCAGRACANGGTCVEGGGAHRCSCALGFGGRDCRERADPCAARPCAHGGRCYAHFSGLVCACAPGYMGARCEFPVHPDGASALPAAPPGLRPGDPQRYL
Test: hybridoma screening on immobilized human DLL3 or on h293-hDLL3 cells

binder	binding result
SC16.55 (antibody, V domains shown, murine mAb; variable regions only) VH: EVQLVESGGGLVQPKGSLKLSCAVSAFTFTTYAMNWVRQAPGKGLEWVARIRNKSNNYATYYADSVKDRFTISRDDSQSMLYLQMNNLKIEDTAMYYCVFYYDYVYWGQGTLVTVSA VL: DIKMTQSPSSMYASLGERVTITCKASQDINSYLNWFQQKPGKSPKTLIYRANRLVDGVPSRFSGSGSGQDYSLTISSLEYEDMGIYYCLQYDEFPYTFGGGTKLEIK	binds
SC16.110 (antibody, V domains shown, murine mAb; variable regions only) VH: EVQLQQSGPGLVRTGASVKISCKASGYSFTGYYMHWVKQSHGKSLEWIGYISCYNGATTYNQNFKGKATFIVDTSSSTAYMQFNSLTSEDSAVYYCARSDGGHAMDYWGQGTSVTVSS VL: NIVMTQTPKFLLVSAGDRVTITCKASQSVSNDVAWYQQKPGQSPKLLIYYASNRYTGVPDRFTGSGYGTDFTFTISTVQAEDLAVYFCQQDYSSPPTFGGGTKLEIK	binds
SC16.38 (antibody, V domains shown, murine mAb; variable regions only) VH: EVQLQQSGAELVKPGASVKLSCTVSGFNIKDTYIHWVKQRPEQGLEWIGRIDPANGNTKYDPKFQGKATITADTSSNTAYLQLSSLTSEDTAVYYCARPTGYFEYWGQGTTLTVSS VL: QIVLTQSPAIMSASPGEKVTMTCSASSSINYMHWYQQKPGTSPKRWIYDTSKLASGVPARFSGSGSGTSYSLTISSMEAEDAATYYCHQRSTWTFGGGTKLEIK	binds
